tested on: upland rice (Oryza sp., var.Tebonnet, RICE); assay: Pre-emerge test, crop damage upland rice; type: in vivo; conditions: pre-emerge, 250 g ai/ha, 14 days after application, rating scale 0-100 (0 no damage, 100 complete death)
Criterion: Pre-emerge crop damage RICE (phytotoxicity rating) strictly less than 80. Met: condition met. Not met: condition not met.

# compound, labelClass
data = [
    ("Cn1nc(-c2c(F)cc3c4c2NC(=O)C(C)(C)N4C(=O)CO3)c(Cl)c1OC(F)F [1-27]", "condition not met"),
    ("CCC1C(=O)Nc2c(-c3nn(C)c(OC(F)F)c3Cl)c(F)cc3c2N1C(=O)C(C)(C)O3 (centres unmarked) [1-61]", "condition met"),
    ("CC1Oc2cc(F)c(-c3nn(C)c(OC(F)F)c3Cl)c3c2N(C1=O)C(C)C(=O)N3 (mixture of isomers) [1-57]", "condition met"),
    ("CC1C(=O)Nc2c3c(cc(F)c2-n2c(=O)cc(C(F)(F)F)n(C)c2=O)OCC(=O)N31 (centres unmarked) [1-2]", "condition not met"),
    ("CC1Oc2cc(F)c(-c3nn(C)c(C(F)(F)F)c3Cl)c3c2N(C1=O)C(C(C)C)C(=O)N3 (mixture of isomers) [1-53]", "condition met"),
    ("CCC1C(=O)Nc2c(-c3ncc(C(F)(F)F)cc3Cl)c(F)cc3c2N1C(=O)CO3 (centres unmarked) [1-66]", "condition not met"),
    ("CCC1C(=O)Nc2c3c(cc(F)c2-n2nc(C)n(C(F)F)c2=O)OCC(=O)N31 (centres unmarked) [1-75]", "condition not met"),
    ("Cn1nc(-c2c(F)cc3c4c2NC(=O)CN4C(=O)C(C)(C)O3)c(Cl)c1OC(F)F [1-59]", "condition met"),
]

----------
system: common ragweed (Ambrosia artemisiifolia L., AML); assay: Pre-emerge test, common ragweed; format: in vivo; details: 250 g ai/ha, 14 days after application, rating scale 0-100 (0 no damage, 100 complete death)
measure: Pre-emerge Herbicidal Activity AML (phytotoxicity rating)

# molecule, recordedResult
records = [
    ("C[C@H]1Oc2cc(F)c(-c3nn(C)c(OC(F)F)c3Cl)c3c2N(CC(=O)N3)C1=O [1-55]", 100),
    ("CC(C)C1C(=O)Nc2c3c(cc(F)c2-n2c(=O)cc(C(F)(F)F)n(C)c2=O)OCC(=O)N31 (stereo not shown) [1-77]", 100),
    ("Cn1c(C(F)(F)F)cc(=O)n(-c2c(F)cc3c4c2NC(=O)CN4C(=O)CO3)c1=O [1-1]", 100),
    ("Cn1nc(-c2c(F)cc3c4c2NC(=O)C(Cl)N4C(=O)CO3)c(Cl)c1OC(F)F (stereo not shown) [1-79]", 99),
]

----------
test system: ivyleaf morningglory (Ipomoea hederacea, IPH); assay: Pre-emerge test, ivyleaf morningglory; assay type: in vivo; conditions: 250 g ai/ha, 14 days after application, rating scale 0-100 (0 no damage, 100 complete death)
measure: Pre-emerge Herbicidal Activity IPH (phytotoxicity rating)

# molecule, recordedResult
rows = [
    ("CC1C(=O)N(C)c2c(-c3nn(C)c(OC(F)F)c3Cl)c(F)cc3c2N1C(=O)CO3 (centres unmarked) [1-62]", 60),
    ("CC1Oc2cc(F)c(-c3nn(C)c(C(F)(F)F)c3Cl)c3c2N(C1=O)C(C)C(=O)N3 (mixture of isomers) [1-51]", 98),
    ("Cc1nn(-c2c(F)cc3c4c2NC(=O)C(C)N4C(=O)CO3)c(=O)n1C(F)F (centres unmarked) [1-74]", 95),
    ("Cn1nc(-c2c(F)cc3c4c2NC(=O)C(C)(C)N4C(=O)CO3)c(Cl)c1OC(F)F [1-27]", 100),
    ("Cc1nn(-c2c(F)cc3c4c2NC(=O)CN4C(=O)CO3)c(=O)n1C(F)F [1-73]", 100),
    ("Cn1nc(-c2c(F)cc3c4c2NC(=O)CN4C(=O)CO3)c(Cl)c1OC(F)F [1-25]", 100),
    ("CC1Oc2cc(F)c(-c3nn(C)c(OC(F)F)c3Cl)c3c2N(C1=O)C(C)C(=O)N3 (mixture of isomers) [1-57]", 100),
    ("O=C1CN2C(=O)COc3cc(F)c(-n4nnn(CCCF)c4=O)c(c32)N1 [1-76]", 25),
]
